system: SEM cells; experiment: cell viability relative to DMSO control; higher = less cytotoxic; settings: RPMI 5 mM glucose + 10% FBS; 48 h; 15.4 µM
measurement.label: cell viability (%)
Hi! Could you send only the number? It should be in %, unit omitted.

Illustrative cases are given below, each with its answer.
* CC(=O)Nc1ccc(OC[C@](C)(O)C(=O)Nc2ccc([N+](=O)[O-])c(C(F)(F)F)c2)cc1 | 93.7
* OC(=O)C1=CC=C(NC2=NC3=C(C\N=C(/C4=CC(=CC=C34)Cl)C5=C(F)C=CC=C5F)C=N2)C=C1 | 28.4
* COc1cc2c(cc1-c1c(C)noc1C)ncc1[nH]c(=O)n([C@H](C)c3ccccn3)c12 | 6.3
* O=NN(CCCl)C(=O)NC1CCCCC1 | 109
* COc1cnc(N[S+](=O)([O-])c2ccc(N)cc2)nc1 | 102

Ask | What does the data say about its cell viability? Entry: `CC(C)n1nc(-c2cc3cc(O)ccc3[nH]2)c2c(N)ncnc21`
Reply | 23.6

Ask | Which cell viability is reported for this compound? `C=C(C)[C@@H]1CC[C@]2(C(=O)O)CC[C@]3(C)[C@H](CC[C@@H]4[C@@]5(C)CC[C@H](O)C(C)(C)[C@@H]5CC[C@]43C)[C@@H]12`
Reply | 112

Ask | Value lookup for cell viability; key = COC1CCC(CC1)N(C(=O)C2CCC(C)CC2)C3=C(SC(=C3)\C4=C\CCCC4)C(O)=O (configuration not stated)
Reply | 82.2

Ask | Look at this compound and give its reported cell viability. `C[C@]12CC[C@@H]3c4ccc(OC(=O)N(CCCl)CCCl)cc4CC[C@H]3[C@@H]1CC[C@@H]2OP(=O)([O-])[O-].[Na+].[Na+]`
Reply | 65.4

Ask | Can you look up the measured cell viability of `Cc1cc(OCCCc2c(C(=O)O)n(Cc3cccnc3)c3c(-c4c(COc5ccc(N6CCN([S+](C)(=O)[O-])CC6)cc5)nn(C)c4C)cccc23)cc(C)c1Cl` for me?
Reply | 91.2

Ask | Entry under review: `C[C@@H](NC1=CC=CC=C1C(O)=O)C/2=C/C(=C\N3C(=O)/C=C(\N=C23)N4CCOCC4)C` . Reported cell viability?
Reply | 8.88

Ask | Give the measured cell viability of CC1(C)CC(=O)c2c(C(F)(F)F)nn(-c3ccc(C(N)=O)c(NC4CCC(O)CC4)c3)c2C1 (configuration not stated) .
Reply | 17.4

Ask | Query: cell viability; subject: CC\1=C(C(\N=C(/N1)C2=CC(=NC=C2)Cl)C3=C(F)C=C(Cl)C=C3)/C(=O)NC4=C(F)C=C5[NH]N=CC5=C4 (configuration not stated)
Reply | 51.7

Ask | Please report the recorded cell viability for `OC1=C(O)C2=C(\C=C/C(=O)O2)C=C1` .
Reply | 93.5

Ask | Item under review: `CC/1=C/C(=O)N(O)/C(=C1)C2CCCCC2` . Reported cell viability?
Reply | 55.3

Ask | # cell viability lookup, item `CCCCCOC(=O)NC\1=N\C(=O)N(\C=C1F)[C@@H]2O[C@H](C)[C@@H](O)[C@H]2O`
Reply | 94.4

Ask | Find the recorded cell viability belonging to `NC(=O)c1cnc(N[C@@H]2CCCC[C@@H]2N)nc1Nc1cccc(-n2nccn2)c1` and report it.
Reply | 40.3

---

tested on: SEM cells; test: cell viability relative to DMSO control; higher = less cytotoxic; details: RPMI 5 mM glucose + 10% FBS; 48 h; 0.0211 µM
measurement.label: cell viability (%)
Dear colleague, please return just the value in %, with no unit written.

Known results for compounds:
- CC(C)n1nc(-c2cc3cc(O)ccc3[nH]2)c2c(N)ncnc21: 136
- CO[C@H]1/C=C/O[C@@]2(C)Oc3c(C)c(O)c4c(O)c(c5c(nc6cc(C)ccn65)c4c3C2=O)NC(=O)/C(C)=C\C=C\[C@H](C)[C@H](O)[C@@H](C)[C@@H](O)[C@@H](C)[C@H](OC(C)=O)[C@@H]1C: 125
- C\C1=C\C(=O)OC2=C1C=CC(=C2)O: 104
- CC(C)n1c(/C=C/[C@H](O)C[C@H](O)CC(=O)O)c(-c2ccc(F)cc2)c2ccccc21: 107
- COc1c(C)cnc(Cn2cnc3c(Cl)nc(N)nc32)c1C: 115

Ask | For the compound shown here, `CC(=O)N(C)c1cccc(-c2ccnc3c(C(=O)c4cccs4)cnn23)c1` , give the reported cell viability.
Reply | 37.7

Ask | Dear colleague, I am looking for the recorded cell viability of the following compound: `CC1=NN(c2ccc(C)c(C)c2)C(=O)/C1=N/Nc1cccc(-c2cccc(C(=O)O)c2)c1O`
Reply | 130

Ask | # cell viability lookup, item `OC(=O)C1=CC=C(NC2=NC3=C(C\N=C(/C4=CC(=CC=C34)Cl)C5=C(F)C=CC=C5F)C=N2)C=C1`
Reply | 99.9

Ask | Given the entry `ClC1=C(N\C2=N\CCN2)C3=NSN=C3C=C1` , report its measured cell viability.
Reply | 74.6

Ask | Fill in: cell viability of `CC(C)OC(=O)OCOP(=O)(CO[C@H](C)Cn1cnc2c(N)ncnc21)OCOC(=O)OC(C)C.O=C(O)C=CC(=O)O` is ___
Reply | 119

Ask | Record request: cell viability value, item `COC1=CC2=NC=CC(=C2C=C1)OC3=CN=C(NC(=O)C/4=C(C)/N(CC(C)(C)O)N(C4=O)C5=CC=CC=C5)C=C3`
Reply | 108

Ask | Quick one: cell viability for `CC(C)(C)c1cc(NC(=O)Nc2ccc(-c3cn4c(n3)sc3cc(OCCN5CCOCC5)ccc34)cc2)no1` ?
Reply | 49.8

Ask | Which cell viability reading was recorded for the compound `CC/C(=C(/c1ccc(O)cc1)c1ccc(OCCNC)cc1)c1ccccc1` ?
Reply | 112

---

test system: SEM cells; assay: cell viability relative to DMSO control; higher = less cytotoxic; conditions: RPMI 5 mM glucose + 10% FBS; 48 h; 0.569 µM
measurement.label: cell viability (%)
Express it in %; write the number only.

* Cc1c(CN2CCN(C(=O)[C@H](C)O)CC2)sc2c(N3CCOCC3)nc(-c3cnc(N)nc3)nc12 | 56.3
* Oc1ccc2c3c1O[C@H]1c4[nH]c5c(c4C[C@@]4(O)[C@@H](C2)N(CC2CC2)CC[C@]314)C[C@@]1(O)[C@H]2Cc3ccc(O)c4c3[C@@]1(CCN2CC1CC1)[C@H]5O4 | 123
* O=C(OC)[C@]12CC[C@@]3(C)[C@]4(C)CC[C@H]5[C@@](C)(C)C(=O)C(=C[C@]5(C)C4=CC(=O)[C@@H]3[C@@H]2C[C@](C)(C)CC1)C#N | 101
* COc1cc2c(cc1-c1c(C)noc1C)ncc1[nH]c(=O)n([C@H](C)c3ccccn3)c12 | 102
* C[C@]12C[C@H](O)[C@H]3[C@@H](CC\C4=C\C(=O)\C=C/[C@]34C)[C@@H]1CC[C@]2(O)C(=O)CO | 107

Ask | Record request: cell viability value, item `Cc1cn2c(-c3cn[nH]c3)cnc2c(Nc2ccc(C(=O)N3CCNCC3)cc2F)n1`
Reply | 96.7

Ask | Any idea what cell viability was measured for `C[C@H](O)[C@H]1[C@@H]2[C@H](C)C(=C(\N2C1=O)C(O)=O)/S[C@@H]3CN[C@H](CN[S+](N)([O-])=O)C3` ?
Reply | 125

---

cell viability values for the compounds below.
system: P12-Ichikawa; assay: cell viability relative to DMSO control; higher = less cytotoxic; conditions: RPMI 5 mM glucose + 10% FBS; 48 h; 0.00702 µM
Supply the numeric figure in %, leaving out any unit text.

As a guide, the following entries are already answered.
* C[C@](O)(COc1ccc(C#N)cc1)C(=O)Nc1ccc(C#N)c(C(F)(F)F)c1 | 84.3
* CC(=O)N(C)c1cccc(-c2ccnc3c(C(=O)c4cccs4)cnn23)c1 | 88.5
* COc1ccc(CC2NCCc3cc(OC)c(OC)cc32)cc1OC (stereo not given) | 89
* COc1ccc(Cc2ccc(NC(N)=O)cc2)cc1-c1cccc(Cl)c1 | 122

Ask | Return reported cell viability; argument: `CC1(C)CCC[C@]2(C)[C@H]3CC(=O)O[C@]3(C)CC[C@@H]12`
Reply | 122

---

test system: P12-Ichikawa; test: cell viability relative to DMSO control; higher = less cytotoxic; conditions: HPLM + 10% dialyzed FBS; 48 h; 0.00234 µM
measurement.label: cell viability (%)
Please respond with the number in % and leave the unit unwritten.

In the examples that follow, each entry is paired with its recorded cell viability.
- CCc1cc(Nc2nccc(-c3c(-c4ccc(OC)c(C(=O)Nc5c(F)cccc5F)c4)nc4ccccn34)n2)c(OC)cc1N1CCC(N2CCN([S+](C)(=O)[O-])CC2)CC1: 108
- CC(C)(C)C(=O)Oc1ccc2c(c1)nc(NC(=O)c1cccc([N+](=O)[O-])c1)n2CCCO: 123
- COC1=C(N2CCNC(C)C2)C(=CC3=C1N(\C=C(C(O)=O)/C3=O)C4CC4)F (stereo not drawn): 105

Ask | Can you look up cell viability on P12-Ichikawa for O=C(NOCC(O)CO)c1cc(Br)c(F)c(F)c1Nc1ccc(I)cc1F (stereo not drawn) ?
Reply | 84.2

Ask | What value of cell viability on P12-Ichikawa does CC(=O)O[C@H]1C(=O)[C@]2(C)[C@@H](O)C[C@H]3OC[C@@]3(OC(C)=O)C2[C@H](OC(=O)C4=CC=CC=C4)[C@]5(O)C[C@H](OC(=O)[C@H](O)[C@@H](NC(=O)C6=CC=CC=C6)C7=CC=CC=C7)\C(=C1/C5(C)C)C (stereo partly drawn) have?
Reply | 42.1

Ask | Lookup: cell viability / P12-Ichikawa / `Nc1ccccc1NC(=O)c1ccc(CNC(=O)OCc2cccnc2)cc1`
Reply | 118

Ask | Could you share what cell viability was measured for `CCCCCCCCCCCCCCCCCCCCCCO` , tested on P12-Ichikawa?
Reply | 125

Ask | Provide the documented cell viability with P12-Ichikawa as the system for CCC1(C)CC(=O)NC1=O (stereo not drawn)
Reply | 103
